Target Entity: EPHB2 (UniProt P29323)
Sequence (P29323 whole entry, looked up): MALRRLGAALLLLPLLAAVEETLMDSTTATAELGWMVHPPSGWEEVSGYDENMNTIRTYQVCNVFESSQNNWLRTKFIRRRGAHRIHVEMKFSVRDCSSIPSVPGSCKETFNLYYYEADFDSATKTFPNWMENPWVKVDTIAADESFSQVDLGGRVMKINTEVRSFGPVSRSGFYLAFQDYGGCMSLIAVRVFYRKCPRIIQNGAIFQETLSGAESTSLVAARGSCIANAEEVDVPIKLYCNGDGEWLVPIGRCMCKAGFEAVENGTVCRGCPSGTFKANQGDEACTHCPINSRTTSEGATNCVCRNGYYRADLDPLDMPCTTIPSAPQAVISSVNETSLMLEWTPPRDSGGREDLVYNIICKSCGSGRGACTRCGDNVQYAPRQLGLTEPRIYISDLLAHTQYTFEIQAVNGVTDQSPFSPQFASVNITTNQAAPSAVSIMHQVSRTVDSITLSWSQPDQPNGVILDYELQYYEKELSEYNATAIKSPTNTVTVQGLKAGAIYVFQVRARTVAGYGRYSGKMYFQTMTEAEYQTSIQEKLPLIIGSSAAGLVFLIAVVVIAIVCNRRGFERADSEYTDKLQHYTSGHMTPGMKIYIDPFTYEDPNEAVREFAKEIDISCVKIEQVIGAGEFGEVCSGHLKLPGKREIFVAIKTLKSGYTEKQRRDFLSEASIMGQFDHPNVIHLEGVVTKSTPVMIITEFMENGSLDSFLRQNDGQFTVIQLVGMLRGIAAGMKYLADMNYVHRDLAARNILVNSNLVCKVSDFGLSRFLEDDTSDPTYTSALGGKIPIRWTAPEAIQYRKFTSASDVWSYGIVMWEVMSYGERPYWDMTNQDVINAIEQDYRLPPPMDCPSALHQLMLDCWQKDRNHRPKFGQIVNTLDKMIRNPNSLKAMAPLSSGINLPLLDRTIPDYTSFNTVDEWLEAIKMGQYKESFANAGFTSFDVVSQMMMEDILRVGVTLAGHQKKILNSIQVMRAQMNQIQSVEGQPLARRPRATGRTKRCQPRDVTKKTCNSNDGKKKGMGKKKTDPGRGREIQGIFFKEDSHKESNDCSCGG
Assay Summary: phosphorylation enrichment, bacterial display (enrichment ratio); higher = better substrate or ligand; peptides without Tyr show the background;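 further: 11-residue human phosphosite peptides and single-mutation variants displayed on the E. coli surface, counted by deep sequencing, each peptide's frequency after selection divided by its frequency in the unselected input library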;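 further: frequency after pTyr selection over input frequency; kinase dosed for 20-30% of maximal phosphorylation in three min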
Listing of recorded phosphorylation enrichment by entry.

Residues	phosphorylation enrichment
KGEDFYYVTCH [FHL1_Y149_C150Y]	0.729
NPQKSCFIRLY [WAS_Y83_Y83C]	0.503
RLNWIYYKDQT [RS1_Y165]	0.712
SIDLGYHKDLQ [NF1_Y1169_G1166D]	0.478
DNEFAYLKAII [HNF4A_Y288_YF]	0.455
WGTAEYDSVVA [MAP1A_Y1883]	0.86
TCRPPYFHRNC [HGD_Y333_F329C_YF]	0.686
PGAPAYRVLME [MYO5A_Y1245]	0.585
ETELPYQELQG [TYROBP_Y91_S89L]	0.58
PIFEGYGLPHA [ACTA1_Y171_A172G_YF]	0.5
PFWKLYESVKK [MKI67_Y241]	2.31
WIPIQYPIISE [NOG_Y222]	0.439
TIQSMYGCDVG [HLA-B_Y123_L119I]	0.48
KIVFVYVKKRS [DNAI2_Y7_E2K_YF]	0.48

====

Target Entity: Hck (UniProt P08631)
Sequence (P08631 whole entry, looked up): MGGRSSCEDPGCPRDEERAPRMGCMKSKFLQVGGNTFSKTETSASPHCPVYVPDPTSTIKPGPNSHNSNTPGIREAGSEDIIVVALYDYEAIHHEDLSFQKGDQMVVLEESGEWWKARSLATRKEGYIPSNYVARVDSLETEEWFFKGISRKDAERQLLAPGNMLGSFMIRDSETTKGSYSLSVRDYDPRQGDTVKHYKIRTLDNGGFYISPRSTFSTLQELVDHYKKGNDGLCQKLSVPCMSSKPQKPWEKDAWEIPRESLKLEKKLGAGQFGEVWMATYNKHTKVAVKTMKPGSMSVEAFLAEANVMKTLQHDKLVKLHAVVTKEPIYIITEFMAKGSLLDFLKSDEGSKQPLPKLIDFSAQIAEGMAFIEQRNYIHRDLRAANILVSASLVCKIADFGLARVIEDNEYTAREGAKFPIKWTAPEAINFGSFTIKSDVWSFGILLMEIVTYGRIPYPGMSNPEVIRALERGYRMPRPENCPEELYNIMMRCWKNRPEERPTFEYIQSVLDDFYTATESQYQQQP
Assay Summary: phosphorylation enrichment, bacterial display (enrichment ratio); higher = better substrate or ligand; peptides without Tyr show the background
Tick y if phosphorylation enrichment is 0.4 or greater. Tick n if phosphorylation enrichment is less than 0.4.

Residues	Label Class
GRTPLYMDRQG [AGXT_Y194_G190R]	y
YDCKWYIPLTD [BCR_Y756]	y
IMAFFYMCDSA [CASD1_Y382_R386S_YF]	y
ENELTYFCCKK [CD59_Y86_YF]	y
QISSNYDDAMQ [ZNF281_Y531]	y
VDASFCGGRGV [ANTXR2_Y381_Y381C_YF]	y
VAVVQYSGMGQ [COL6A1_Y878_T881M]	y
PGQAAYQKVVA [HBB_Y131_V127G]	n
PIYLYYLMDLS [ITGB2_Y131_D128Y]	y
ENAGFYFQVSA	n
HLQQSYLPRGT [TEX45_Y396]	y
VHNLNYFKKTT [FGFR3_Y647_D646N_YF]	n
TVSTRYTQPQP [SARG_Y259]	n

====

Target Entity: Fyn (UniProt P06241)
Sequence (P06241 whole entry, looked up): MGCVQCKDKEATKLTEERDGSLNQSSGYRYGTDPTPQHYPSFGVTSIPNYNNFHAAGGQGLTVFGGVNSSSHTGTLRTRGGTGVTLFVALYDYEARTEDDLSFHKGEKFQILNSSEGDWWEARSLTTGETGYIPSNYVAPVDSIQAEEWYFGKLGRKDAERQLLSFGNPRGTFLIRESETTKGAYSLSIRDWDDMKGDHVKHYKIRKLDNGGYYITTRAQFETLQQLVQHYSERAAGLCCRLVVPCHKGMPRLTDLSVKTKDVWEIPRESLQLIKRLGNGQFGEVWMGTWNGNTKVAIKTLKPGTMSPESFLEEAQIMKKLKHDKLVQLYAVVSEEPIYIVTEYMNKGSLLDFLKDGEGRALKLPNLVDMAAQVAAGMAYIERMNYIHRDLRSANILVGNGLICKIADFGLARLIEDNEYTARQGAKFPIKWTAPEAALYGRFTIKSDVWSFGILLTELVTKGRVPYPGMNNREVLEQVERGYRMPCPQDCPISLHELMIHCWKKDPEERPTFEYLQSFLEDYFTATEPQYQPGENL
Assay Summary: phosphorylation enrichment, bacterial display (enrichment ratio); higher = better substrate or ligand; peptides without Tyr show the background
Measured Parameter: phosphorylation enrichment

Residues	Measured Parameter	Observed
EKSREYDRLFE [PIK3R1_Y463_YF]	phosphorylation enrichment	0.448
CTTIHNNFMCN [TP53_Y234_Y234N_YF]	phosphorylation enrichment	0.507
KIVFVYVKKRS [DNAI2_Y7_E2K_YF]	phosphorylation enrichment	0.425
RLLVVYRWTQR [HBB_Y36_P37R]	phosphorylation enrichment	0.639
EQYELHCEMGS [CBL_Y371_Y371H]	phosphorylation enrichment	0.491
NFFDTCIKTCL [IQGAP2_Y1445_Y1445C_YF]	phosphorylation enrichment	0.369
KLSHLYQDHMQ [WNT5A_Y86_C83S]	phosphorylation enrichment	0.442
FENGEYIVRQG [PRKG1_Y247_I249V_YF]	phosphorylation enrichment	0.468
LDAFIYDAAVL [GRIN2A_Y730]	phosphorylation enrichment	9.56
AGIVVYNIIGW [MYH7_Y588_D587V]	phosphorylation enrichment	2.31
KMATAYIRSMS [BCO1_Y264_R267S]	phosphorylation enrichment	0.417
VTQEQYELYCE [CBL_Y368]	phosphorylation enrichment	0.684
CTTIHYNYICN [TP53_Y234_M237I]	phosphorylation enrichment	0.457
SYSGEYGSGGG [ZG16_Y30_G32S]	phosphorylation enrichment	0.417
